Target: T1, EsCas13d, nuclease-dead (Eubacterium siraeum, UniProt B0MS50, R295A;H300A;R849A;H854A)
T1 sequence: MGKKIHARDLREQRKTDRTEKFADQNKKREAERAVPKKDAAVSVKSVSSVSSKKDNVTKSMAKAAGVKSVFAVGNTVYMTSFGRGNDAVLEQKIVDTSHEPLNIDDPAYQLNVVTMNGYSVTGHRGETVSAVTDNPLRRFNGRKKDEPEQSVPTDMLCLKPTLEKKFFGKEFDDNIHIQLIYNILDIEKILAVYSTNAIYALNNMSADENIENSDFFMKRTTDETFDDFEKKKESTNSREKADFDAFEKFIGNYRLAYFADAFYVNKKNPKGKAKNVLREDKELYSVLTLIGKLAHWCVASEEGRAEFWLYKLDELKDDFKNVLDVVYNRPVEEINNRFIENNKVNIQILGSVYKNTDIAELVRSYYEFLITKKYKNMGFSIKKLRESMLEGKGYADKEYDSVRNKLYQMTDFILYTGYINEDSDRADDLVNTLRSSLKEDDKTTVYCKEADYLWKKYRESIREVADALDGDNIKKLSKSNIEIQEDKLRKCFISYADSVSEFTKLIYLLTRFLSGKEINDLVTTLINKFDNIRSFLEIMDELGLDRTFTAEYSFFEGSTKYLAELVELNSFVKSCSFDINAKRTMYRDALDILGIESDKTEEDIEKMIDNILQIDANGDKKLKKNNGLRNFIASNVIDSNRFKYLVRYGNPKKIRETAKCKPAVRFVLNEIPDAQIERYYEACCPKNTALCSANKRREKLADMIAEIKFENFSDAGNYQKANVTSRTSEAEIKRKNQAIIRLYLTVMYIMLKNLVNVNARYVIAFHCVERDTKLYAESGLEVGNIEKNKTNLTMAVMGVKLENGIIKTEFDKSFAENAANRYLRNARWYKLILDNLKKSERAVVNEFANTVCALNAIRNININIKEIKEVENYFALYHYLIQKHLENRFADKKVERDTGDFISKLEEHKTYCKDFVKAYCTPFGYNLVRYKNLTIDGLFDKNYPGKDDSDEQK
Experiment: crRNA (strand 1, pre-loaded); Mg2+; 40 mM Tris-HCl pH 7.5, 150 mM NaCl, 6 mM MgCl2, 1 mM DTT, 0.1% Tween-20, 0.2 mg/ml BSA; 25 C; 10 min per concentration, then washed
Details: tags: His6-TwinStrep-SUMO cleaved; N-terminal SNAP kept (SNAP-Surface 488); label: 3' end held by stalled T7 RNA polymerase
pKd: −log10 of the molar value.
Each record here notes measured pKd.
recorded endpoint: pKd

>>> result("target 1 del13,del16 (mixed) RNA 1: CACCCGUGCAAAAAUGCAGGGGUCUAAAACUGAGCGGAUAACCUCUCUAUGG RNA 2: GGGAAUGGAUCCACAUCUACGAAUUCGUACCAUAGGAGUUAUCCGCUCACCGAGAUCGGAAGAGCACACGU")
7.03
>>> result("target 2 MT 5'PFS GGC 3'PFS ACA (mixed) RNA 1: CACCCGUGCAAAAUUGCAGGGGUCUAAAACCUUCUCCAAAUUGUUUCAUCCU RNA 2: GGGAAUGGAUCCACAUCUACGAAUUCGGCAGGAUGAAACAAUUUGGAGAAGACAAGAUCGGAAGAGCACACGU")
7.74
